# method.summary: Apparent permeability from apical to basolateral side in human Caco2 cells at 10 uM
# Assay type: ADME, cell-based
# experimental.parameters: Caco-2
measure: Papp A→B at 10 µM (×10⁻⁶ cm/s)
The reply should be a number in ×10⁻⁶ cm/s, with the unit left off.

Memo: `CC(C)[C@@H](c1nc2ccccc2o1)n1cc(/C=C/C(=O)NO)nn1` , reported Papp A→B at 10 µM: 6.61

====

# target.desc: Histone deacetylase (Homo sapiens) (UniProt Q13547+O15379+Q9UBN7+Q92769+Q9UQL6+Q8WUI4+Q9BY41+Q96DB2+P56524+Q9UKV0+Q969S8)
# method.summary: Inhibition of HDAC in human MDA-MB-231 cells assessed as stimulation of histone H3 acetylation at 5 uM incubated for 24 hrs by Western blot
# Type: cell-based
The source made the active and inactive calls. The calls are words filed in the database; no cut-off is given here.
Assign a class; possible classes are active, inactive

For orientation, consider the following solved cases.
{"columns": ["compound", "category"],
 "data": [
  ["O=C(/C=C/c1cn(Cc2nc3ccccc3o2)nn1)NO", "active"],
  ["CC(C)C(c1nc2ccccc2o1)n1cc(/C=C/C(=O)NO)nn1 (racemic)", "active"],
  ["O=C(/C=C/c1cn(Cc2nc3ccccc3s2)nn1)NO", "inactive"]
]}

## Task Fill in: this test's call for `CC(C)[C@@H](c1nc2ccccc2o1)n1cc(/C=C/C(=O)NO)nn1` is ___
## Result active
